Values compiled from ChEMBL document CHEMBL4477252.

experiment: Solubility of the compound at pH 7; format: physicochemical; conditions: buffer
Give measured solubility for each item. Keep answers brief.
Please state the figure in µM; there is no need to write the unit.

Look up and state reported solubility for Cn1cc(-c2cnc3c(-c4csc(C(=O)N[C@@H]5CCC[C@H]5N)c4)cnn3c2)cn1 (racemic)
203

Identify measured solubility associated with Cn1cc(-c2cnc3c(-c4csc(C(=O)N[C@@H]5CCCC[C@H]5O)c4)cnn3c2)cn1 (mixture of isomers)
6

Specify measured solubility for Cn1cc(-c2cnc3c(-c4csc(C(=O)N[C@@H]5CCCC[C@@H]5N)c4)cnn3c2)cn1 (racemic) .
68

Look up and state reported solubility for Cc1sc(C(=O)N[C@@H]2[C@H](N)CCCC2(F)F)cc1-c1cnn2cccnc12
200
